system: S. cerevisiae vps1Δ apl2Δ growth inhibition, dose response; assay: growth inhibition of vps1Δ apl2Δ yeast, dose response, post-Golgi transport modulator project, S. cerevisiae, background strain comparison (AID 788)
Activity calls are given as the source filed them. No rule for the calls is given here.
Possible outcomes: active, inactive

molecule=O=c1c2cccc3c2c(nn1CN1CCOCC1)-c1ccccc1-3 label_class=inactive
molecule=COc1ccc2oc(=O)c(-c3nnc(NCc4ccco4)s3)cc2c1 label_class=inactive
molecule="CC1CN(CC(O)COc2ccc(C(C)C)cc2)CC(C)O1 (centres undefined)" label_class=active
molecule=Cc1cc(C)nc(NC(=O)CSc2nn(C)c(=S)s2)n1 label_class=inactive
molecule=O=C(CCl)c1ccc(Cc2ncc(C(F)(F)F)cc2Cl)s1 label_class=inactive
molecule=CC(C)COC(=O)c1ccc2c(c1O)C(=O)c1ccccc1C2=O label_class=inactive
molecule="Cc1cc(N2C(=O)C3CCCN3C2c2sccc2C)no1 (centres undefined)" label_class=inactive
molecule=O=C(NCc1ccccc1)NS(=O)(=O)c1ccccc1Cl label_class=inactive
molecule="O=C1NC2(Nc3ccccc31)C(=O)Nc1ccccc12 (centres undefined)" label_class=inactive
molecule=O=[N+]([O-])c1ccc(N2CCN(S(=O)(=O)c3ccc(Cl)cc3)CC2)cc1NCc1cccnc1 label_class=inactive
molecule=CCOc1nc(SCCOc2ccccc2)nc(N(C)C)n1 label_class=inactive
molecule="COc1cccc(NC(=O)C2CCCN2C(=O)OCc2ccccc2)c1 (centres undefined)" label_class=inactive
molecule=O=C(O)Cn1c(SCCOc2ccccc2F)nc2ccccc21 label_class=inactive
molecule="CCOC(=O)C(C)Oc1ccc2c(C)cc(=O)oc2c1C(C)=O (centres undefined)" label_class=inactive
molecule=CCN(CC)c1ccc(CN2CC=C(c3ccc(F)cc3)CC2)cc1 label_class=active
molecule=Cc1[nH]nc(N=CC2=C(O)CC(C)(C)CC2=O)c1-c1ccc(Cl)cc1 label_class=inactive
molecule="N#CC1=C(N)C(C#N)(C#N)C(c2cccnc2)C2CC(c3ccccc3)CC=C12 (centres undefined)" label_class=active
molecule=CCOCCCNC(=O)C1CCN(C(=O)N(C)C)CC1 label_class=inactive
molecule=CCOC(=O)c1ccc(NC(=O)c2ccc(CN3CCOCC3)cc2)cc1 label_class=active
molecule="COc1ccc(C(=O)Nc2ccc(Cl)cc2C(=O)N2CCCC(C)C2)cc1 (centres undefined)" label_class=inactive
molecule="O=C(NCc1ccco1)C(c1cccs1)N(C(=O)Cc1cccs1)c1ccccc1 (centres undefined)" label_class=inactive
molecule=Cc1ccnc(N2C(=O)c3cccc4c([N+](=O)[O-])ccc(c34)C2=O)c1 label_class=inactive
molecule=O=C(COc1ccc(Cl)cc1Cl)NCCCN1CCOCC1 label_class=active
molecule="Cc1sc(NC(=O)c2ccco2)c(C(c2cccnc2)N2CCC(C)CC2)c1C (centres undefined)" label_class=inactive

====

test system: S. cerevisiae vps1Δ apl2Δ growth inhibition, dose response; test: growth inhibition of vps1Δ apl2Δ yeast, dose response, post-Golgi transport modulator project, S. cerevisiae, background strain comparison (AID 788)
Active and inactive are the calls of the source. No rule for the calls is given here.
Possible outcomes: Yes for active, No for inactive

molecule="Cc1ccc(C2(C(F)(F)F)N=C3Sc4cc(C)cc(C)c4N3C(=O)N2)cc1 (configuration not stated)" label_class=No
molecule=N#Cc1nc(COc2ccc(-c3ccccc3)cc2)oc1NCCCN1CCOCC1 label_class=Yes
molecule=O=S1(=O)C=C(Sc2nc3ccccc3s2)c2ccccc21 label_class=No
molecule=CC(C)OC(=O)CSc1nnc(-c2ccc(Cl)cc2)n1N label_class=No
molecule=CCOC(=O)c1cccnc1SCc1cc(=O)n2ccccc2n1 label_class=No
molecule=COCCNc1cc(C)nc2c3c(C)cc(C)nc3nn12 label_class=No
molecule=c1coc(CNc2nc(N3CCCCC3)nc3ccccc23)c1 label_class=No
molecule=COc1cc(CN2CCN(c3ccc(C)cc3)CC2)cc([N+](=O)[O-])c1O label_class=No
molecule=CCOc1cccc(C(=O)Nc2cccnc2)c1 label_class=No
molecule=CC(=O)c1cnc2nc(C)nn2c1C label_class=No
molecule=CCCCC1(CCCC)C(=O)NC(=Nc2cccc(C)c2)NC1=O label_class=No
molecule=O=S(=O)(c1cnccc1N1CCN(/N=C/c2ccc(Br)cc2)CC1)N1CCCCC1 label_class=No
molecule=Cn1nnc2cc(C(=O)Nc3cccnc3)ccc21 label_class=No
molecule=CN1C(=O)/C(=C/c2cccn2-c2ccc3ccccc3c2)C(=O)NC1=S label_class=No
molecule=Fc1ccc(-c2noc(C3CCN(Cc4cccnc4)CC3)n2)cc1 label_class=Yes
molecule=O=Cc1cc2ccccc2nc1SCc1ccc(Cl)cc1 label_class=No
molecule=CCCCCCOc1ccc(CN2CCN(CCO)CC2)cc1 label_class=Yes
molecule=COc1ccc(Nc2nc(N)nc(CSc3nnc(N)s3)n2)cc1 label_class=No
molecule=CCCCCOc1ccc(CN2CCOCC2)cc1Cl label_class=Yes
molecule=CC1=CC(C)(C)Nc2ccc(OC(=O)CN3C(=O)c4cccc5cccc(c45)C3=O)cc21 label_class=No
molecule=O=c1c2c3c(sc2ncn1/N=C/c1ccc([N+](=O)[O-])o1)CCCC3 label_class=No
molecule="CCOC(=O)NC(Nc1ccc(S(N)(=O)=O)cc1)(C(=O)OCC)C(F)(F)F (configuration not stated)" label_class=No
molecule=CCOC(=O)Cc1c(C)c2ccc(N(CC)CC)cc2oc1=O label_class=No
molecule=Cc1ccc(C)c(C(=O)NCc2ccncc2)c1 label_class=No
molecule="Cc1cc2ncn(CC(O)COc3cccc(C(=O)O)c3)c2cc1C (configuration not stated)" label_class=No
molecule=Cn1c(=O)c2nc(NCc3ccccc3)cnc2n(C)c1=O label_class=No
molecule=CCC(=O)c1ccc(N2CCN(C(=O)c3ccc(Br)cc3)CC2)c(F)c1 label_class=Yes
molecule=O=C(CC(=O)c1cc(Cl)ccc1O)c1ccccc1 label_class=Yes
molecule=CC1CCN(S(=O)(=O)c2ccc(NC(=O)CCN3C(=O)c4ccccc4C3=O)cc2)CC1 label_class=No
molecule=Cc1ccc(/C=N/n2cnc3sc(-c4ccccc4)cc3c2=O)o1 label_class=No
molecule="CCOC(=O)c1c(CN2CCCCC2C)oc2ccc(OC)cc12 (configuration not stated)" label_class=No
molecule="Cc1ccc(SC(C)C(=O)Nc2ncn[nH]2)cc1 (configuration not stated)" label_class=No
molecule=CCC(=O)N(CCO)Cc1cc2ccc(C)c(C)c2[nH]c1=O label_class=No
molecule=COc1ccc(N2CCN(C(=O)CCNS(=O)(=O)c3ccc(Br)s3)CC2)cc1 label_class=No
molecule=CCn1c(SCC(=O)N2CCCc3ccccc32)nnc1-c1ccco1 label_class=No
molecule=CN1CCN(CCCNC(=O)Cn2nc(-c3ccccc3)ccc2=O)CC1 label_class=No
molecule=Cn1c(=O)cc(NCc2ccccc2)[nH]c1=O label_class=No
molecule=N=c1c2c(-c3ccccc3)c(-c3ccccc3)n(Cc3ccco3)c2ncn1Cc1ccccc1 label_class=Yes
molecule="COc1cccc(OCCCCN2CC(C)OC(C)C2)c1 (configuration not stated)" label_class=Yes
molecule=O=C1CN(C(=O)CSc2nnc(-c3ccccc3)n2Cc2ccc3c(c2)OCO3)c2ccccc2N1 label_class=No
molecule=CCCCOc1ccc(-c2ncc(C(=O)O)c(C)n2)cc1 label_class=No
molecule=Clc1ccc(-c2cnc(Oc3ccccc3)nc2)cc1 label_class=No
molecule=O=C(OCn1ncc(Br)c(Br)c1=O)c1ccccc1Cl label_class=Yes
molecule=O=C(OCn1nnc2ccccc2c1=O)c1cn(-c2ccccc2)nc1-c1cccnc1 label_class=No
molecule=O=C(O)c1ccc(N2CCCCC2)cc1 label_class=No
molecule=FC(F)(F)COc1nc(N2CCCCC2)nc(N2CCNCC2)n1 label_class=No
molecule=O=C(c1ccco1)N1CCN=C1SCc1cccnc1 label_class=No
